Recorded pKa values for a group of compounds are listed next.
experiment: physchem
measured-metric: pKa

smi	measured-metric	result-number
CCO[C@@H]([C@H]1C[C@@H](C)[C@H]2[C@H](O1)[C@H](O)[C@@]1(C)[C@@H]3CC[C@H]4C(C)(C)[C@@H](O[C@H]5CN(C)CCO5)CC[C@@]45C[C@@]35CC[C@]21C)C(C)(C)O	pKa	7.2
CCO[C@@H]([C@H]1C[C@@H](C)[C@H]2[C@H](O1)[C@H](O)[C@@]1(C)[C@@H]3CC[C@H]4C(C)(C)[C@@H](O[C@H]5CN(C6COC6)CCO5)CC[C@@]45C[C@@]35CC[C@]21C)C(C)(C)O	pKa	5.1
CCO[C@@H]([C@H]1C[C@@H](C)[C@H]2[C@H](O1)[C@H](O)[C@@]1(C)[C@@H]3CC[C@H]4C(C)(C)[C@@H](O[C@H]5CNCCO5)CC[C@@]45C[C@@]35CC[C@]21C)C(C)(C)O	pKa	7.8
CCO[C@@H]([C@H]1C[C@@H](C)[C@H]2[C@H](O1)[C@H](O)[C@@]1(C)[C@@H]3CC[C@H]4C(C)(C)[C@@H](O[C@H]5CN(C6CNC6)CCO5)CC[C@@]45C[C@@]35CC[C@]21C)C(C)(C)O	pKa	10.7

# credit: ChEMBL document CHEMBL3400044
